This collection of values is drawn from patent US5294605A.

# System: Pseudomonas aeruginosa
# experiment-notes: Antimicrobial assay for deletion analogues (Example 10), MIC
# Format: cell-based
# condition-info: Table VII; 3.5×10^5 CFU/ml, 20 hours, LB medium
Task for the reader: assign each of the following substances its reported Minimum Inhibitory Concentration P. Aeruginosa.
One number for each entry, in µg/mL.

Record excerpt, results attached:
Recorded result, Ac-LKLLKKLLKKLKKLLKKL-NH2 [None (parent)] , Minimum Inhibitory Concentration P. Aeruginosa: 75

Recorded result, Ac-LKLLKLLKKLKKLLKKL-NH2 [5 (X(SEQ ID NO: 49) --NH2)] , Minimum Inhibitory Concentration P. Aeruginosa: 32

Recorded result, Ac-LKLLKKLLKKLKKLLKL-NH2 [16 (X(SEQ ID NO: 55) --NH2)] , Minimum Inhibitory Concentration P. Aeruginosa: 16

Recorded result, Ac-LKLLKKLLKKLKLLKKL-NH2 [12 (X(SEQ ID NO: 53) --NH2)] , Minimum Inhibitory Concentration P. Aeruginosa: 8

Recorded result, Ac-LKLLKKLLKKKKLLKKL-NH2 [11 (X(SEQ ID NO: 52) --NH2)] , Minimum Inhibitory Concentration P. Aeruginosa: 8

Recorded result, Ac-LKLLKKLLKKLKKLKKL-NH2 [14 (X(SEQ ID NO: 54) --NH2)] , Minimum Inhibitory Concentration P. Aeruginosa: 8

// each substance listed below needs its Minimum Inhibitory Concentration P. Aeruginosa
1. Ac-LKLLKKLLKKLKKLLKK-NH2 [18 (X(SEQ ID NO: 56) --NH2)]
2. Ac-LKLKKLLKKLKKLLKKL-NH2 [3 (X(SEQ ID NO: 48) --NH2)]
3. Ac-LKLLKKLLKLKKLLKKL-NH2 [9 (X(SEQ ID NO: 51) --NH2)]

1: 8; 2: 8; 3: 16
